- measurement.target: UniProt:Q07889
- method.summary: SOS1 degradation assay (Western blot) in NCI-H358 cells
- Type: cell-based
- conditions: NCI-H358 (KRAS G12C), 24 h
measurement.name: DC50

Solved entries:
compound_smiles=CNCc1ccccc1-c1csc([C@@H](C)Nc2nc(C)nc3cc(OC)c([C@H]4CC[C@H](C(=O)N5CCC(CCCC6CCN(C(=O)c7ccc(Cl)c(N8CCC(=O)NC8=O)c7)CC6)CC5)CC4)cc23)c1 value_reported="100 to 500 nM"
compound_smiles=CNCc1ccccc1-c1csc([C@@H](C)Nc2nc(C)nc3cc(OC)c([C@H]4CC[C@H](C(=O)N5CCN(CC6CCC7(CC6)CCN(C(=O)c6ccc(Cl)c(N8CCC(=O)NC8=O)c6)CC7)CC5)CC4)cc23)c1 value_reported="< 50 nM"
compound_smiles=COc1cc2nc(C)nc(N[C@H](C)c3cc(-c4c(Cl)cccc4CN(C)C)cs3)c2cc1[C@H]1CC[C@H](C(=O)N2CCC(CCOCC3CCN(C(=O)c4ccc(Cl)c(N5CCC(=O)NC5=O)c4)CC3)CC2)CC1 value_reported="< 50 nM"

// switching to the query molecule
# get_value(readout= DC50, system= UniProt:Q07889) for COc1cc2nc(C)nc(N[C@H](C)c3cc(-c4ccccc4CN(C)C)cs3)c2cc1[C@H]1CC[C@H](C(=O)N2CCN(CC3CCC4(CC3)CCN(C(=O)c3ccc(Cl)c(N5CCC(=O)NC5=O)c3)CC4)CC2)CC1 50 to 100 nM

* * *

Items are presented alongside their recorded DC50.
- measurement.target: SOS1 protein (Homo sapiens)
- Sequence (Q07889 whole entry): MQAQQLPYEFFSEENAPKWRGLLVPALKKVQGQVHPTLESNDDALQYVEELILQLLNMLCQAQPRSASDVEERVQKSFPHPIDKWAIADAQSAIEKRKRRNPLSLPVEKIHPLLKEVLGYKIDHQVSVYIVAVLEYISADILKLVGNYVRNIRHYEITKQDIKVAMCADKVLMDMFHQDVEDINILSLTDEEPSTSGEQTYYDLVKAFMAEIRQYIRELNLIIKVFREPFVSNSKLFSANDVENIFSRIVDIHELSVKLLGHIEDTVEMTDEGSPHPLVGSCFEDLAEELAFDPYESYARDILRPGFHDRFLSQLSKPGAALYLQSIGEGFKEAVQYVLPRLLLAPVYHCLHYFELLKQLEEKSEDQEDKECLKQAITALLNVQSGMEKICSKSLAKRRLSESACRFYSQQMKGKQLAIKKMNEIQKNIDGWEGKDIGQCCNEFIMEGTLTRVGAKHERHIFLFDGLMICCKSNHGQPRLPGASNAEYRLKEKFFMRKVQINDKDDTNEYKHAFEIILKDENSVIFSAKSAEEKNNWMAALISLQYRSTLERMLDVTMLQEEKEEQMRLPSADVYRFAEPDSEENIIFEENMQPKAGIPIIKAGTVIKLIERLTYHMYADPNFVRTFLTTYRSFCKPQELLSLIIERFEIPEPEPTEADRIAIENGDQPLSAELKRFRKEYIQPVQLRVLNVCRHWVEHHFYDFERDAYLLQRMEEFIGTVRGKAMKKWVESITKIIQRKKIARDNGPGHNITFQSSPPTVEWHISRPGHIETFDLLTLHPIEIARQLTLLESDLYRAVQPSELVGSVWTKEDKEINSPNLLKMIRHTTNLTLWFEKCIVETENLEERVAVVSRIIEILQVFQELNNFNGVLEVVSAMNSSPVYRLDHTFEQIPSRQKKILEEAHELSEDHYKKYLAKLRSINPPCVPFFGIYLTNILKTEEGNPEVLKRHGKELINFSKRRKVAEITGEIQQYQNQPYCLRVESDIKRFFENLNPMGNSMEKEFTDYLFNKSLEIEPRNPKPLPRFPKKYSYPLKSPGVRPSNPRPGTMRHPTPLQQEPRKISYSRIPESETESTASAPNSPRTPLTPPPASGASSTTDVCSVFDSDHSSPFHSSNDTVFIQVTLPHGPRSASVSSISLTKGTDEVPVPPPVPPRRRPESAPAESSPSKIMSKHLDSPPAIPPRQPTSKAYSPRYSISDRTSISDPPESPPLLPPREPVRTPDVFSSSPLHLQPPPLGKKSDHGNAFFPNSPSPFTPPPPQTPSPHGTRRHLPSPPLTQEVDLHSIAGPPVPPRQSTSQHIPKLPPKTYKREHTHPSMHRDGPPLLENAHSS
- method.summary: SOS1 degradation assay (Western blot) in NCI-H358 cells
- Assay type: cell-based
- conditions: NCI-H358 (KRAS G12C), 24 h

compound_smiles=COc1cc2nc(C)nc(N[C@H](C)c3cc(-c4c(Cl)cccc4CN(C)C)cs3)c2cc1[C@H]1CC[C@H](C(=O)N2CCN(CC3CCC4(CC3)CCN(C(=O)c3ccc(Cl)c(N5CCC(=O)NC5=O)c3)CC4)CC2)CC1 value_reported="< 50 nM"

// switching to the query compound
I have this compound here, COc1cc2nc(C)nc(N[C@@H](C)c3cc(N)cc(C(F)(F)F)c3)c2cc1[C@H]1CC[C@@H](C(=O)N2CCN(CCC3CCC4(CC3)CCN(C(=O)c3ccc(Cl)c(N5CCC(=O)NC5=O)c3)CC4)CC2)CC1 , and I need its recorded DC50. 1000 to 10000 nM

* * *

- measurement.target: KRAS-G12C/SOS1 (Homo sapiens, UniProt Q07889)
- Sequence (Q07889 whole entry, stated change not applied): as the sequence (Q07889 whole entry) above
- method.summary: KRAS-G12C/SOS1 binding assay (HTRF)
- conditions: inhibition of KRAS-G12C/SOS1 binding
pIC50: −log10 of the molar value.
Items are presented alongside their recorded pIC50.

compound_smiles=CNCc1ccccc1-c1csc([C@@H](C)Nc2nc(C)nc3cc(OC)c([C@H]4CC[C@H](C(=O)N5CCN(CC6CCC7(CC6)CCN(C(=O)c6ccc(Cl)c(N8CCC(=O)NC8=O)c6)CC7)CC5)CC4)cc23)c1 value_reported="≥ 7.82"
compound_smiles=COc1cc2nc(C)nc(N[C@H](C)c3cc(-c4ccccc4CN(C)C)cs3)c2cc1[C@H]1CC[C@H](C(=O)N2CCN(CC3CCC4(CC3)CCN(C(=O)c3ccc(Cl)c(N5CCC(=O)NC5=O)c3)CC4)CC2)CC1 value_reported="≥ 7.82"

I have this molecule here, COc1cc2nc(C)nc(N[C@H](C)c3cc(-c4c(Cl)cccc4CN(C)C)cs3)c2cc1[C@H]1CC[C@H](C(=O)N2CCC(CCOCC3CCN(C(=O)c4ccc(Cl)c(N5CCC(=O)NC5=O)c4)CC3)CC2)CC1 , and I need its recorded pIC50. ≥ 7.82

I have this molecule here, COc1cc2nc(C)nc(N[C@H](C)c3cc(-c4c(Cl)cccc4CN(C)C)cs3)c2cc1[C@H]1CC[C@H](C(=O)N2CCN(CC3CCC4(CC3)CCN(C(=O)c3ccc(Cl)c(N5CCC(=O)NC5=O)c3)CC4)CC2)CC1 , and I need its recorded pIC50. ≥ 7.82

I have this molecule here, CNCc1ccccc1-c1csc([C@@H](C)Nc2nc(C)nc3cc(OC)c([C@H]4CC[C@H](C(=O)N5CCC(CCCC6CCN(C(=O)c7ccc(Cl)c(N8CCC(=O)NC8=O)c7)CC6)CC5)CC4)cc23)c1 , and I need its recorded pIC50. 7.52 to 7.82
